Reference for the values: patent US5047397A

MEASURED ON: specific ANP receptor sites on BASM or BAE cells (Bos taurus, UniProt P10730)
Construct: specific receptor sites on BASM or BAE cells; endogenous in cells; host or cells: cultured BASM and BAE cells
Sequence (P10730 42-537): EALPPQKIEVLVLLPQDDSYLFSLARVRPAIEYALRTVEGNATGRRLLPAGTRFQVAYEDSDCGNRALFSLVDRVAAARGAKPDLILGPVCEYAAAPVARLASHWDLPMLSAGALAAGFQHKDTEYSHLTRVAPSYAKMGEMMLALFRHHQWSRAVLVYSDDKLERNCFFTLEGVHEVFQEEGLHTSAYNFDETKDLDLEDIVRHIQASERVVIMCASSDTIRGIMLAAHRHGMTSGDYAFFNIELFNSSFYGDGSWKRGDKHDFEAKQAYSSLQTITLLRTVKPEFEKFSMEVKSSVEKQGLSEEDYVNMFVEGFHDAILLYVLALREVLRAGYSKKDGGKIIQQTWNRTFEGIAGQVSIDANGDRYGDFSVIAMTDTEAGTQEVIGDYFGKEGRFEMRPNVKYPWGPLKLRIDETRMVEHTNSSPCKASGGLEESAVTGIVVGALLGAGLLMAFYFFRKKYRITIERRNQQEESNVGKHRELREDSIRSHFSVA
PROTOCOL DETAILS: Competitive displacement receptor binding of (125I)-rANP(126-150) on cultured cells
Design: species or system bovine
PROTOCOL CONDITIONS: concentration of unlabeled peptide displacing 50% of maximal binding of 0.5 nM (125I)-rANP(126-150); BASM or BAE cells
Where a SMILES comes first, the peptide text is derived from it. [ ]: non-standard residue; d: D form. The star is where a group is joined. Acetyl(2-naphthyloxy) = O=C(COc1ccc2ccccc2c1)*; Acetyl(2-naphthyl) = O=C(Cc1ccc2ccccc2c1)*; tBuAla = CC(C)(C)C[C@H](N)C(=O)O; Ava = NCCCCC(=O)O
QUANTITY KIND: Ki(app)
Number first, unit second.

Below: 2 compounds and their reported Ki(app).
| COMPOUND | MEASURED ON | Ki(app) |
| --- | --- | --- |
| CC[C@H](C)[C@H](NC(=O)[C@H](CCCNC(=N)N)NC(=O)CNC(=O)CNC(=O)Cc1ccc2ccccc2c1)C(=O)N[C@@H](CC(=O)O)C(=O)N[C@@H](CCCNC(=N)N)C(=O)N[C@@H](CC(C)(C)C)C(N)=O [AP594, (2-NA)--G--G--R--I--D--R--tBuA--NH2] ({Acetyl(2-naphthyl)}-GGRIDR[tBuAla]-NH2) | specific ANP receptor sites on BASM or BAE cells (Bos taurus, UniProt P10730) | 15.0 nM |
| CC[C@H](C)[C@H](NC(=O)[C@H](CO)NC(=O)[C@H](CC(=O)O)NC(=O)[C@@H](NC(=O)[C@H](CCCNC(=N)N)NC(=O)CNC(=O)CNC(=O)Cc1ccc2ccccc2c1)[C@@H](C)CC)C(N)=O [AP516, (2-NA)--G--G--R--I--D--S--I--NH2] ({Acetyl(2-naphthyl)}-GGRIDSI-NH2) | specific ANP receptor sites on BASM or BAE cells (Bos taurus, UniProt P10730) | 399 nM |

Here is another compound to look at.
Which Ki(app) is reported for this compound? CC[C@H](C)[C@H](NC(=O)[C@H](CCCNC(=N)N)NC(=O)[C@H](CC(=O)O)NC(=O)[C@@H](NC(=O)[C@H](CCCNC(=N)N)NC(=O)CCCCNC(=O)COc1ccc2ccccc2c1)[C@@H](C)CC)C(N)=O [AP307] ({Acetyl(2-naphthyloxy)-Ava}-RIDRI-NH2) 39.9 nM

* * *

MEASURED ON: specific ANP receptor sites on BASM or BAE cells (Bos taurus)
Construct: specific receptor sites on BASM or BAE cells; endogenous in cells; host or cells: cultured BASM and BAE cells
Sequence (P10730 42-537): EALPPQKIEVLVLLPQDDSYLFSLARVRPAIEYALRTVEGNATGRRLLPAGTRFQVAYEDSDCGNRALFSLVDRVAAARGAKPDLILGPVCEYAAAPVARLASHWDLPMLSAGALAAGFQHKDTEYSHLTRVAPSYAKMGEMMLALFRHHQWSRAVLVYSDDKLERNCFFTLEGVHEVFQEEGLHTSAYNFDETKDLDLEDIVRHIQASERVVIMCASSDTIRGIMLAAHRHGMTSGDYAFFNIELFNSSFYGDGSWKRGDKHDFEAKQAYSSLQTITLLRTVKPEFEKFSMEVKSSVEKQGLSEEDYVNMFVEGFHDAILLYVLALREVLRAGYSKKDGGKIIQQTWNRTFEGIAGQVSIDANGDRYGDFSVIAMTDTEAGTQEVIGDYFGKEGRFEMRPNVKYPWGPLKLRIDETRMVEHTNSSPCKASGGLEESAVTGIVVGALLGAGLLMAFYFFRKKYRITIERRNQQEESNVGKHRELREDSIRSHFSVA
PROTOCOL DETAILS: Competitive displacement receptor binding of (125I)-rANP(126-150) on cultured cells
Set-up: species or system bovine
PROTOCOL CONDITIONS: concentration of unlabeled peptide displacing 50% of maximal binding of 0.5 nM (125I)-rANP(126-150); BASM or BAE cells
*1 amine or outer side, *2 acyl side, *3 side chain or, on linkers, in order; H or OH if unused. Where a SMILES comes first, the peptide text is derived from it. [ ]: non-standard residue; d: D form. The star is where a group is joined. Acetyl(1-adamantyl) = O=C(CC12CC3CC(CC(C3)C1)C2)*; Acetyl(2-naphthyloxy) = O=C(COc1ccc2ccccc2c1)*; Acetyl(2-naphthyl) = O=C(Cc1ccc2ccccc2c1)*; X1 = O=C(Cc1ccc(N[*:1])cc1)[*:2]; Sar = CNCC(=O)O
QUANTITY KIND: Ki(app) (nM)
Output spec: scalar in nM, unitless text.

Below: 3 compounds and their reported Ki(app).
| COMPOUND | RECORDED RESULT |
| --- | --- |
| CC[C@H](C)[C@H](NC(=O)[C@H](CCCNC(=N)N)NC(=O)[C@H](CC(=O)O)NC(=O)[C@@H](NC(=O)[C@H](CCCNC(=N)N)NC(=O)CNC(=O)CNC(=O)CC12CC3CC(CC(C3)C1)C2)[C@@H](C)CC)C(N)=O [AP309, (1-AA)--G--G--R--I--D--R--I--NH2] ({Acetyl(1-adamantyl)}-GGRIDRI-NH2) | 30.0 |
| CC[C@H](C)[C@H](NC(=O)[C@H](CCCNC(=N)N)NC(=O)[C@H](CC(=O)O)NC(=O)[C@@H](NC(=O)[C@H](CCCNC(=N)N)NC(=O)CN(C)C(=O)CNC(=O)Cc1ccc2ccccc2c1)[C@@H](C)CC)C(N)=O [AP320, (2-NA)--G--(Sar)--R--I--D--R--I--NH2] ({Acetyl(2-naphthyl)}-G[Sar]RIDRI-NH2) | 47.4 |
| CC[C@H](C)[C@H](NC(=O)[C@H](CCCNC(=N)N)NC(=O)[C@H](CC(=O)O)NC(=O)[C@@H](NC(=O)[C@H](CCCNC(=N)N)NC(=O)CNC(=O)CNC(=O)COc1ccc2ccccc2c1)[C@@H](C)CC)C(=O)NCC(=O)N[C@@H](C)C(N)=O [AP318, (2-NOA)--G--G--R--I--D--R--I--G--A--NH2] ({Acetyl(2-naphthyloxy)}-GGRIDRIGA-NH2) | 8.7 |

Which Ki(app) is reported for this compound? CC[C@H](C)[C@H](NC(=O)[C@H](CCCNC(=N)N)NC(=O)[C@H](CC(=O)O)NC(=O)[C@@H](NC(=O)[C@H](CCCNC(=N)N)NC(=O)CNC(=O)CNC(=O)Cc1ccc2ccccc2c1)[C@@H](C)CC)C(N)=O [AP314, (2-NA)--G--G--R--I--D--R--I--NH2] ({Acetyl(2-naphthyl)}-GGRIDRI-NH2) 14.5

Which Ki(app) is reported for this compound? CC[C@H](C)[C@H](NC(=O)[C@H](CCCNC(=N)N)NC(=O)[C@H](CC(=O)O)NC(=O)[C@@H](NC(=O)[C@H](CCCCN)NC(=O)Cc1ccc(NC(=O)Cc2ccc3ccccc3c2)cc1)[C@@H](C)CC)C(N)=O [AP800] ({Acetyl(2-naphthyl)}-[X1]KIDRI-NH2) 2.90

Which Ki(app) is reported for this compound? CC[C@H](C)[C@H](NC(=O)[C@H](CCCNC(=N)N)NC(=O)[C@H](CC(=O)O)NC(=O)[C@@H](NC(=O)[C@H](CCCNC(=N)N)NC(=O)[C@@H](C)NC(=O)CNC(=O)[C@H](Cc1ccccc1)NC(=O)[C@H](C)N)[C@@H](C)CC)C(=O)NCC(=O)N[C@@H](C)C(N)=O [AP157, A--F--G--A^ --R--I--D--R--I--G--A--NH2] (H-AFG[dA]RIDRIGA-NH2) 5.90
